B1: SH3 and PX domain-containing protein 2B, residues 155 to 209; numbered along this chain, A1X283 (parent)
chain: EQYVVVANYQKQESSEISLSVGQVVDIIEKNESGWWFVSTAEEQGWVPATCLEGQ

Variants of: B1
Assay remarks: abundance fitness (aPCA) (normalised: wild type 0, dead -1); higher = more abundant; growth selection in yeast, the domain comes from the species named
Setup conditions: Homo sapiens
# cutoff -0.07 applies to abundance fitness; >= gives 1, < gives 0

In: Check if abundance fitness >= -0.07 (inclusive). Item: EQYVVVANYQKQESSEISLSVGQVVDIIEKNESGWWFVSTAEEQSWVPATCLEGQ [G45S]
Out: 0

In: Form field: abundance fitness at least -0.07? Entry: EQYVVVANYQKQEMSEISLSVGQVVDIIEKNESGWWFVSTAEEQGWVPATCLEGQ [S14M]
Out: 1

In: Confirm if abundance fitness reported for the variant EQYAVVANYQKQESSEISLSVGQVVDIIEKNESGWWFVSTAEEQGWVPATCLEGQ [V4A] is -0.07 or above.
Out: 1

In: Evaluate EQYNVVANYQKQESSEISLSVGQVVDIIEKNESGWWFVSTAEEQGWVPATCLEGQ [V4N] : abundance fitness at minimum -0.07?
Out: 0

In: Reported abundance fitness at or above -0.07? EQYVVVANYQKQESSEISLSNGQVVDIIEKNESGWWFVSTAEEQGWVPATCLEGQ [V21N]
Out: 0
